# Target desc: PI3K beta (Homo sapiens, UniProt P42338)
# Construct: purchased Millipore, Billerica, MA, USA
# Sequence (P42338 whole entry, species assumed): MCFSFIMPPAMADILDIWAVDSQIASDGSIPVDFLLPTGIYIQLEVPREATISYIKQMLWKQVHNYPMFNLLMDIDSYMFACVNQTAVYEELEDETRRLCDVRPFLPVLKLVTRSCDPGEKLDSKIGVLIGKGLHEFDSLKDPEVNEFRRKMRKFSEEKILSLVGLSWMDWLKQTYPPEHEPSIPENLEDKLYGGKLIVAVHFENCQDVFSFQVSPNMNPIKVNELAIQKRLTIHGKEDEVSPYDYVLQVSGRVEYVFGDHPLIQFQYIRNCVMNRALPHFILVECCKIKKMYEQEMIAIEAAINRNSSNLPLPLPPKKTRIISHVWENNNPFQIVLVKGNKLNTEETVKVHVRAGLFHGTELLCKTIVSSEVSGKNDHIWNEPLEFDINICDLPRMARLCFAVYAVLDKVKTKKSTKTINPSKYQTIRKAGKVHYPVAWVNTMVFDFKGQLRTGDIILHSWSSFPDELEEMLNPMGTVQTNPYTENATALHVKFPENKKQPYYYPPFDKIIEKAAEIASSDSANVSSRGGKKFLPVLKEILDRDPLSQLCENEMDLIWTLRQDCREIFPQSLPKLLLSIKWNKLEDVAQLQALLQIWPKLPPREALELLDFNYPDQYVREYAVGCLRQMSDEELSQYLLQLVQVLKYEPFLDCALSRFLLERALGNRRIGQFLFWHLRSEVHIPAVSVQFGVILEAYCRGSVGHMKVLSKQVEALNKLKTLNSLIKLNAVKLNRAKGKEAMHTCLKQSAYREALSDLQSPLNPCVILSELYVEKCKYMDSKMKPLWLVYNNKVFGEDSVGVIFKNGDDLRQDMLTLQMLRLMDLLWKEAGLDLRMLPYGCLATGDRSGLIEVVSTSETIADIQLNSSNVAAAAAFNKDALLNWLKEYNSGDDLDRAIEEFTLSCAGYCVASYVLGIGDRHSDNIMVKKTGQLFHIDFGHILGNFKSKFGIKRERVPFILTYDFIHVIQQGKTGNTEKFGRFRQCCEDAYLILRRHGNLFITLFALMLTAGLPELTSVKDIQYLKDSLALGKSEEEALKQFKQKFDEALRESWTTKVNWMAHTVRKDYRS
# Sequence (P27986 whole entry partner, species assumed): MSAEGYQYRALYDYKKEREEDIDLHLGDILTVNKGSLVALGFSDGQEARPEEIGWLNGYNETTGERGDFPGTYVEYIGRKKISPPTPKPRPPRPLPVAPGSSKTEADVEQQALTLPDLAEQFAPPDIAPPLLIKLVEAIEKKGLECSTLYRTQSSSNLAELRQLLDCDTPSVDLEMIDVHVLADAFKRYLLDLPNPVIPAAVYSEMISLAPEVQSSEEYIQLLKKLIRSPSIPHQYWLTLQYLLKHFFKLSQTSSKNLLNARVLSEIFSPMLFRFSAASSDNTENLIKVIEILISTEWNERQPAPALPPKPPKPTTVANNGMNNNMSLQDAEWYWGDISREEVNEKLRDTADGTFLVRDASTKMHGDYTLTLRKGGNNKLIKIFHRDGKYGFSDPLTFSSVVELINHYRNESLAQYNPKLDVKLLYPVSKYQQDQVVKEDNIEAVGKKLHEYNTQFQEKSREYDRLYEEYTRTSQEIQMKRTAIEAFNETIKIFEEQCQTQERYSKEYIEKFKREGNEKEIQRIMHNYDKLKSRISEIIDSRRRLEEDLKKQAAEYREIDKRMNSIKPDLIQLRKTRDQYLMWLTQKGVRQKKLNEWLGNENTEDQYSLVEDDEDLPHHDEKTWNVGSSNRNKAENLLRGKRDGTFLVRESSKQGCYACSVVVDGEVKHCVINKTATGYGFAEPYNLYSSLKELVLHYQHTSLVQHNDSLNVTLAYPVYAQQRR
# Test protocol: Luciferase-based luminescence assay (ADP Glo), PI3K beta enzymatic activity
# Assay type: biochemical
# Condition context: ratio of enzymatic IC50 values, Table 1
Value kind: α/β ratio

Chemical string	Target desc	Value observed
CC(C)(Nc1nc(N2CCOCC2)nc(-n2c(C(F)F)nc3ccccc32)n1)c1ccccc1	PI3K beta (Homo sapiens, UniProt P42338)	D’
COc1cc(CC(C)(C)Nc2nc(N3CCOCC3)nc(-n3c(C(F)F)nc4ccccc43)n2)ccc1F	PI3K beta (Homo sapiens, UniProt P42338)	B’
CC(C)(Cc1cccc(Cl)c1)Nc1nc(N2CCOCC2)nc(-n2c(C(F)F)nc3ccccc32)n1	PI3K beta (Homo sapiens, UniProt P42338)	A’
CC(C)(Cc1ccccc1-c1cncnc1)Nc1nc(N2CCOCC2)nc(-n2c(C(F)F)nc3ccccc32)n1	PI3K beta (Homo sapiens, UniProt P42338)	D’
CC(C)(Cc1ccccc1-c1ccccc1)Nc1nc(N2CCOCC2)nc(-n2c(C(F)F)nc3ccccc32)n1	PI3K beta (Homo sapiens, UniProt P42338)	D’
CC(C)(Cc1ccccc1-c1cccc(CN2CCOCC2)c1)Nc1nc(N2CCOCC2)nc(-n2c(C(F)F)nc3ccccc32)n1	PI3K beta (Homo sapiens, UniProt P42338)	A’

Lab note: next compound to report on.
[ask] Given the entry `CC(C)(Nc1nc(N2CCOCC2)nc(-n2c(C(F)F)nc3ccccc32)n1)C1(c2ccccc2)CC1` , report its measured α/β ratio.
[reply] B’

---

# Target desc: PI3K delta (Homo sapiens, UniProt O00329)
# Construct: purchased Millipore, Billerica, MA, USA
# Sequence (O00329 whole entry, species assumed, one chain of several): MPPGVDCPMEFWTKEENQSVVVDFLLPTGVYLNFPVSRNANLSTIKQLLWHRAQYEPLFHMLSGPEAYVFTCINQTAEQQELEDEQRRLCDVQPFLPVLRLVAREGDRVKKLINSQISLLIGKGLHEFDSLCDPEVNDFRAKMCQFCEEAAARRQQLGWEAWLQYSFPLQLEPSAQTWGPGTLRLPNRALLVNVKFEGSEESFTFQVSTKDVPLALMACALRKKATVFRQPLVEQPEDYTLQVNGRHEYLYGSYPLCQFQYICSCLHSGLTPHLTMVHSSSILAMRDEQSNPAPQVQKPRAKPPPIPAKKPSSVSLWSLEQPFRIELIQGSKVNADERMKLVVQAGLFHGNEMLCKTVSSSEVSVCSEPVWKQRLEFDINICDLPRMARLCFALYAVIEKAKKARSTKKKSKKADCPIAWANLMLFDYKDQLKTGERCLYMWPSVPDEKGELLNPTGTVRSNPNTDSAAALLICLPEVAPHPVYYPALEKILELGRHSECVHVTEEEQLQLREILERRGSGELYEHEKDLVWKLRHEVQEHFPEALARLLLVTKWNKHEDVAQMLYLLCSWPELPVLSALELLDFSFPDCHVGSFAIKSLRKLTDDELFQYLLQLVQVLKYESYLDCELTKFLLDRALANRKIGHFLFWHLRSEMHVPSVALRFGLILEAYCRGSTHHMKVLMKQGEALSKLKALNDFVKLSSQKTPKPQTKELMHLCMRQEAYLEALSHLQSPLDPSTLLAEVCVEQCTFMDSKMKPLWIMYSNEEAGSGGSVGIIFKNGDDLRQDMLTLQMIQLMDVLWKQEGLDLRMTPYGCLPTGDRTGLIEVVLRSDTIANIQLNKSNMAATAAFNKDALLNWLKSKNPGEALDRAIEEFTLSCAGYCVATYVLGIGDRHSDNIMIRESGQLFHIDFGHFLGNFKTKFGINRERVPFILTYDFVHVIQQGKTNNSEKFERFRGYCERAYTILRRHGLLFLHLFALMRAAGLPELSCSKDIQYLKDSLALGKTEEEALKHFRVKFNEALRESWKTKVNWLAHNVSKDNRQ
# Test protocol: Luciferase-based luminescence assay (KinaseGlo), PI3K delta enzymatic activity
# Type: biochemical
# Condition context: ratio of enzymatic IC50 values, Table 1
Value kind: γ/δ ratio

Here are 6 compounds together with their reported answers.
Chemical string	γ/δ ratio
COc1cc(-c2ccccc2CC(C)(C)Nc2nc(N3CCOCC3)nc(-n3c(C(F)F)nc4ccccc43)n2)ccn1	A’
CC(=O)N1CCC(c2ccccc2CC(C)(C)Nc2nc(N3CCOCC3)nc(-n3c(C(F)F)nc4ccccc43)n2)CC1	C’
CC(C)(Cc1ccccc1-c1cn[nH]c1)Nc1nc(N2CCOCC2)nc(-n2c(C(F)F)nc3ccccc32)n1	A’
COc1ccccc1CC(C)(C)Nc1nc(N2CCOCC2)nc(-n2c(C(F)F)nc3ccccc32)n1	B’
CC(C)(Cc1ccccc1-c1ccccc1)Nc1nc(N2CCOCC2)nc(-n2c(C(F)F)nc3ccccc32)n1	A’
CC(C)(Cc1ccccc1-c1cccnc1)Nc1nc(N2CCOCC2)nc(-n2c(C(F)F)nc3ccccc32)n1	A’

Lab note: next compound to report on.
[ask] Given the entry `CC(C)(Nc1nc(N2CCOCC2)nc(-n2c(C(F)F)nc3ccccc32)n1)c1ccccc1` , report its measured γ/δ ratio.
[reply] D’

---

# Target desc: PI3Kβ (Homo sapiens)
# Construct: endogenous in cells
# Sequence (P42338 whole entry): as the sequence (P42338 whole entry, species assumed) above
# Sequence (P27986 whole entry partner): as the sequence (P27986 whole entry partner, species assumed) above
# Test protocol: ELISA assay for PI3Kβ: in-cell ELISA, phosphorylation of AKT (Ser473) in PC-3 cells
# Condition context: cellular, pAKT (Ser473), PC-3 cells, LPA stimulation; read-out: IC50 p110β
# Method: Cellular PI3Kβ activity was determined by measuring the phosphorylation of AKT (Ser473) using an in-cell ELISA assay. PC-3 (prostate carcinoma) cells were obtained from ATCC (ATCC #CRL-1435). […] PC-3 cells were subcultured in growth medium and seeded into flat, clear bottom, 96-well plates (Corning #3904) at 16000 cells/well, then incubated overnight in a 37° C., 5% CO2 incubator. […] Images quantified using Licor Odyssey application software. […]
pIC50: −log10 of the molar value.
This listing pairs compounds with measured pIC50.

Here are 3 compounds together with their reported answers.
Compound	pIC50
CCN1CCC(c2ccccc2CC(C)(C)Nc2nc(N3CCOCC3)nc(-n3c(C(F)F)nc4ccccc43)n2)CC1 [Compound A70]	≥ 7.00
CC(C)(Cc1ccc(F)cc1F)Nc1nc(N2CCOCC2)nc(-n2c(C(F)F)nc3ccccc32)n1 [Compound A51]	6.70 to 7.00
CC(C)(Cc1cccc(F)c1)Nc1nc(N2CCOCC2)nc(-n2c(C(F)F)nc3ccccc32)n1 [Compound A39]	≥ 7.00

[ask] What pIC50 appears in the records for this compound with PI3Kβ (Homo sapiens)? Cc1cccc(CC(C)(C)Nc2nc(N3CCOCC3)nc(-n3c(C(F)F)nc4ccccc43)n2)c1 [Compound A49]
[reply] ≥ 7.00

[ask] What pIC50 appears in the records for this compound with PI3Kβ (Homo sapiens)? CC(C)N1CCC(c2ccccc2CC(C)(C)Nc2nc(N3CCOCC3)nc(-n3c(C(F)F)nc4ccccc43)n2)CC1 [Compound A71]
[reply] ≥ 7.00

---

# Target desc: PI3K delta (Homo sapiens, UniProt O00329)
# Construct: purchased Millipore, Billerica, MA, USA
# Test protocol: Luciferase-based luminescence assay (KinaseGlo), PI3K delta enzymatic activity
# Format: biochemical
# Condition context: ratio of enzymatic IC50 values, Table 1
Value kind: β/δ ratio

Compound	β/δ ratio
CC(C)(Cc1ccccc1C1CCNCC1)Nc1nc(N2CCOCC2)nc(-n2c(C(F)F)nc3ccccc32)n1 [Compound A68]	A’
CC(C)(Cc1ccccc1)Nc1nc(N2CCOCC2)nc(-n2c(C(F)F)nc3ccccc32)n1 [Compound A14]	D’
CC(C)(Cc1ccccc1-c1ccncc1)Nc1nc(N2CCOCC2)nc(-n2c(C(F)F)nc3ccccc32)n1 [Compound A33]	D’
CC(C)(Nc1nc(N2CCOCC2)nc(-n2c(C(F)F)nc3ccccc32)n1)C1(c2ccccc2)CC1 [Compound A30]	D’
COc1cccc(-c2ccccc2CC(C)(C)Nc2nc(N3CCOCC3)nc(-n3c(C(F)F)nc4ccccc43)n2)c1 [Compound A66]	A’
CC(=O)N1CCC(c2ccccc2CC(C)(C)Nc2nc(N3CCOCC3)nc(-n3c(C(F)F)nc4ccccc43)n2)CC1 [Compound A72]	D’
CC(C)(Cc1ccccc1-c1cncnc1)Nc1nc(N2CCOCC2)nc(-n2c(C(F)F)nc3ccccc32)n1 [Compound A63]	A’

Lab note: next compound to report on.
[ask] Given the entry CC(C)(Cc1ccccc1-c1ccccc1)Nc1nc(N2CCOCC2)nc(-n2c(C(F)F)nc3ccccc32)n1 [Compound A47] , report its measured β/δ ratio.
[reply] B’

---

# Target desc: PI3Kδ (Homo sapiens)
# Construct: endogenous in cells; host or cells: Raji (ATCC #CCL-86)
# Sequence (O00329 whole entry, one chain of several): as the sequence (O00329 whole entry, species assumed, one chain of several) above
# Test protocol: ELISA assay for PI3Kδ: sandwich ELISA, phosphorylation of AKT (Thr308) in Raji cells
# Format: cell-based
# Condition context: ratio of cellular IC50 values, Table 2
Value kind: β/δ ratio

Here are 5 compounds together with their reported answers.
Chemical string	Target desc	Value kind	Value observed
Cc1ccccc1-c1ccccc1CC(C)(C)Nc1nc(N2CCOCC2)nc(-n2c(C(F)F)nc3ccccc32)n1	PI3Kδ (Homo sapiens)	β/δ ratio	A’
COc1cccc(-c2ccccc2CC(C)(C)Nc2nc(N3CCOCC3)nc(-n3c(C(F)F)nc4ccccc43)n2)c1	PI3Kδ (Homo sapiens)	β/δ ratio	A’
CC(C)(Cc1cccc2ccccc12)Nc1nc(N2CCOCC2)nc(-n2c(C(F)F)nc3ccccc32)n1	PI3Kδ (Homo sapiens)	β/δ ratio	C’
Cc1cccc(CC(C)(C)Nc2nc(N3CCOCC3)nc(-n3c(C(F)F)nc4ccccc43)n2)c1	PI3Kδ (Homo sapiens)	β/δ ratio	B’
COc1ccc(-c2ccccc2CC(C)(C)Nc2nc(N3CCOCC3)nc(-n3c(C(F)F)nc4ccccc43)n2)cc1	PI3Kδ (Homo sapiens)	β/δ ratio	A’

[ask] Given the entry `CC(C)(Cc1ccccc1C1CCN(S(C)(=O)=O)CC1)Nc1nc(N2CCOCC2)nc(-n2c(C(F)F)nc3ccccc32)n1` , report its measured β/δ ratio.
[reply] C’

[ask] Given the entry `CC(C)N1CCC(c2ccccc2CC(C)(C)Nc2nc(N3CCOCC3)nc(-n3c(C(F)F)nc4ccccc43)n2)CC1` , report its measured β/δ ratio.
[reply] A’

[ask] Given the entry `CC(C)(Cc1c(F)cccc1F)Nc1nc(N2CCOCC2)nc(-n2c(C(F)F)nc3ccccc32)n1` , report its measured β/δ ratio.
[reply] D’

[ask] Given the entry `COc1cc(-c2ccccc2CC(C)(C)Nc2nc(N3CCOCC3)nc(-n3c(C(F)F)nc4ccccc43)n2)ccn1` , report its measured β/δ ratio.
[reply] A’

---

# Target desc: PI3K beta (Homo sapiens, UniProt P42338)
This listing pairs molecules with measured IC50.

Here are 3 molecules together with their reported answers.
Chemical string	IC50
CC(C)(Cc1ccccc1-c1cccnc1F)Nc1nc(N2CCOCC2)nc(-n2c(C(F)F)nc3ccccc32)n1	> 500 nM
CC(C)(Nc1nc(N2CCOCC2)nc(-n2c(C(F)F)nc3ccccc32)n1)c1ccccc1	> 500 nM
CC(C)(Cc1ccccc1-c1cccc(CN2CCOCC2)c1)Nc1nc(N2CCOCC2)nc(-n2c(C(F)F)nc3ccccc32)n1	≤ 100 nM

[ask] Given the entry `CC(C)(Cc1c(F)cccc1F)Nc1nc(N2CCOCC2)nc(-n2c(C(F)F)nc3ccccc32)n1` , report its measured IC50.
[reply] > 500 nM

[ask] Given the entry `CC[C@H](Nc1nc(N2CCOCC2)nc(-n2c(C(F)F)nc3ccccc32)n1)c1ccccc1` , report its measured IC50.
[reply] > 500 nM

[ask] Given the entry `COc1cccc(-c2ccccc2CC(C)(C)Nc2nc(N3CCOCC3)nc(-n3c(C(F)F)nc4ccccc43)n2)c1` , report its measured IC50.
[reply] > 500 nM

[ask] Given the entry `CCN1CCC(c2ccccc2CC(C)(C)Nc2nc(N3CCOCC3)nc(-n3c(C(F)F)nc4ccccc43)n2)CC1` , report its measured IC50.
[reply] > 500 nM

[ask] Given the entry `CC(C)(Cc1cccc(Cl)c1)Nc1nc(N2CCOCC2)nc(-n2c(C(F)F)nc3ccccc32)n1` , report its measured IC50.
[reply] 100 to 200 nM
